# melting point per record follows
assayEndpoint: melting point

>>> print(df.to_string())
                                querysmiles  assayendpoint         testresult
0  CCc1nc2c(C)cc(C)nc2n1-c1ccc(CCNC(=O)NS(=O)(=O)c2ccncc2)cc1  melting point  227.9 to 228.7 °C
1  CCc1nc2cc(C(F)(F)F)c(Cl)cc2n1-c1ccc(C[C@@H](C)NC(=O)NS(=O)(=O)c2ccc(C)cc2)cc1  melting point      138 to 141 °C
2  CCc1nc2cc(C(=O)NC)c(Cl)cc2n1-c1ccc(CCNC(=O)NS(=O)(=O)c2ccc(C)cc2)cc1  melting point      122 to 135 °C
3  CCc1nc2cc(COC)c(Cl)cc2n1-c1ccc(CCNC(=O)NS(=O)(=O)c2ccc(C)cc2)cc1  melting point           134.6 °C
4  CCc1nc2cc(NC)c(Cl)cc2n1-c1ccc(CCNC(=O)NS(=O)(=O)c2ccc(C)cc2)cc1  melting point       95 to 100 °C
5  CCc1nc2c(C)cc(C)nc2n1-c1ccc(CCNC(=O)NS(=O)(=O)c2cc3ccccc3s2)cc1  melting point      128 to 130 °C
6  CCc1nc2cc(Cl)c(Cl)nc2n1-c1ccc(CCNC(=O)NS(=O)(=O)c2ccc(C)cc2)cc1  melting point      188 to 189 °C
7  CCc1nc2cc(C(F)(F)F)c(Cl)cc2n1-c1ccc(CCN(C(=O)O)S(=O)(=O)c2ccc(C)cn2)cc1.Cl.Cl  melting point           200.2 °C

---

The following compounds are listed with their measured melting point values.
assayEndpoint: melting point

In [3]: df
Out[3]:
                                querysmiles     testresult
0  CCc1nc2cc(C(F)(F)F)c(Cl)cc2n1-c1ccc(C[C@H](C)NC(=O)NS(=O)(=O)c2ccc(C)cc2)cc1  141 to 143 °C
1  CCc1nc2cc(S(C)(=O)=O)c(Cl)cc2n1-c1ccc(CCNC(=O)NS(=O)(=O)c2ccc(C)cc2)cc1  105 to 118 °C
2  CCc1nc2c(C(N)=O)cccc2n1-c1ccc(CCNC(=O)NS(=O)(=O)c2ccc(C)cc2)cc1  208 to 214 °C
3  CCc1nc2cc(NS(C)(=O)=O)c(Cl)cc2n1-c1ccc(CCNC(=O)NS(=O)(=O)c2ccc(C)cc2)cc1  101 to 123 °C

---

assayEndpoint: melting point

In [3]: df
Out[3]:
                                   molecule  assayendpoint     testresult
0  CCc1nc2c(C#N)cccc2n1-c1ccc(CCNC(=O)NS(=O)(=O)c2ccc(C)cc2)cc1 [Example 321]  melting point   95 to 103 °C
1  CCc1nc2c(C)c(C#N)c(C)cc2n1-c1ccc(CCNC(=O)NS(=O)(=O)c2ccc(C)cc2)cc1  melting point  140 to 145 °C
2  CCc1nc2cc(C)c(Cl)nc2n1-c1ccc(CCNC(=O)NS(=O)(=O)c2ccc(C)cc2)cc1 [Example 38]  melting point  205 to 206 °C
3  CCc1nc2cc(NC(C)=O)c(Cl)cc2n1-c1ccc(CCNC(=O)NS(=O)(=O)c2ccc(C)cc2)cc1  melting point  125 to 133 °C
4  CCc1nc2cc(N(C)C)c(Cl)cc2n1-c1ccc(CCNC(=O)NS(=O)(=O)c2ccc(C)cc2)cc1  melting point  108 to 114 °C
5  CCc1nc2cc(C(F)(F)F)c(Cl)cc2n1-c1ccc(CCOC(=O)NS(=O)(=O)c2ccccn2)cc1  melting point  127 to 130 °C
6  CCc1nc2cc(S(N)(=O)=O)c(Cl)cc2n1-c1ccc(CCNC(=O)NS(=O)(=O)c2ccc(C)cc2)cc1  melting point  163 to 170 °C
7  CCc1nc2cc(C(=O)O)c(Cl)cc2n1-c1ccc(CCNC(=O)NS(=O)(=O)c2ccc(C)cc2)cc1 [Example 112]  melting point  145 to 150 °C
8  CCc1nc2cc(C(N)=O)c(Cl)cc2n1-c1ccc(CCNC(=O)NS(=O)(=O)c2ccc(C)cc2)cc1  melting point  152 to 163 °C
